Reported CC50 at 3 days values are given for each entry in this list.
# ASSAY_OVERVIEW: Cytotoxicity in RT-qPCR assay (Cp of housekeeping gene β-actin)
# Type: cell-based
# RUN_CONDITIONS: African green monkey, RT-qPCR serotype 3 H87, Protocol A
# Description: The antiviral activity of the compounds of the invention was tested against DENV-1 strain TC974 #666 (NCPV), DENV-2 strain 16681, DENV-3 strain H87 (NCPV) and DENV-4 strain H241 (NCPV) in a RT-qPCR assay. Therefore, Vero cells were infected with either DENV-1, or -2, or -3, or -4 in the presence or absence of test compounds. […] In addition, CC50 values are determined based on the Cp values acquired for the housekeeping gene β-actin. […]

1) COc1cc(NC(C(=O)c2c[nH]c3cc(OC)c(OC(F)(F)F)cc23)c2ccc(Cl)cc2OC)cc(OCCO)c1 (single isomer, unassigned) [Compound 14A] = > 2300 nM

(Q) Entry COc1cc(NC(C(=O)c2c[nH]c3cc(F)c(C(F)(F)F)cc23)c2ccc(Cl)cc2OC)cc(OCCO)c1 (single isomer, unassigned) [Compound 11A] has what CC50 at 3 days?
(A) > 2500 nM

(Q) Can you check COc1cc(NC(C(=O)c2c[nH]c3ccc(OC(F)(F)F)cc23)c2ccc(F)cc2OC)cc(OCCO)c1 (single isomer, unassigned) [Compound 5B] next?
(A) > 2500 nM
